Documented GI50 across a set of compounds
- System: RXF 393
- methodNotes: NCI tumour cell line growth inhibition, 48 h
Activity calls are given as the source filed them. Rule as the data show it: active = GI50 up to about 1.1 µM and inactive = higher.
measureName: GI50

- compound: "COc1ncc(/C=C2\\OC(=O)c3ccccc32)c(OC)n1"
  measuredOn: "RXF 393"
  reportedMeasurement: "7 µM (inactive)"
- compound: "CN(C)C(=S)/N=c1\\ss/c(=N\\C(=S)N(C)C)n1-c1ccc(Cl)cc1"
  measuredOn: "RXF 393"
  reportedMeasurement: "> 100 µM (inactive)"
- compound: "O=C(c1cc2ccccc2[nH]1)C(O)(c1cc2ccccc2[nH]1)c1cc2ccccc2[nH]1"
  measuredOn: "RXF 393"
  reportedMeasurement: "> 246 µM (inactive)"
- compound: "Nc1nc(N)c2cc(-c3cc4ccccc4[nH]3)ccc2n1"
  measuredOn: "RXF 393"
  reportedMeasurement: "24.8 µM (inactive)"
- compound: "O=C(NCCN(CCNC(=O)c1cccc(=O)n1O)CCN(CCNC(=O)c1cccc(=O)n1O)CCNC(=O)c1cccc(=O)n1O)c1cccc(=O)n1O"
  measuredOn: "RXF 393"
  reportedMeasurement: "> 100 µM (inactive)"
- compound: "O=S(=O)(O)c1ccc(/N=N/c2c(O)ccc3ccccc23)cc1"
  measuredOn: "RXF 393"
  reportedMeasurement: "> 100 µM (inactive)"
- compound: "C[N+]12CCCCC1C(CN1C(=O)c3ccccc3C1=O)CCC2 (stereo not given)"
  measuredOn: "RXF 393"
  reportedMeasurement: "> 100 µM (inactive)"
- compound: "CC(=O)Nc1ccc(C2C(C(=O)Nc3ccccc3)=C(C)NC(C)=C2C(=O)Nc2ccccc2)cc1"
  measuredOn: "RXF 393"
  reportedMeasurement: "> 100 µM (inactive)"
- compound: "Cc1cc(NS(=O)(=O)c2ccc(Nc3c4ccccc4nc4ccc(C(=O)Nc5ccc(S(N)(=O)=O)cc5)cc34)cc2)no1"
  measuredOn: "RXF 393"
  reportedMeasurement: "> 100 µM (inactive)"
- compound: "CC1CC(c2ccc(Cl)c(Cl)c2)=Nc2ccccc2S1 (stereo not given)"
  measuredOn: "RXF 393"
  reportedMeasurement: "> 100 µM (inactive)"
- compound: "CC1=C(O)C(=O)c2cn(C)cc2C1=O"
  measuredOn: "RXF 393"
  reportedMeasurement: "> 100 µM (inactive)"
- compound: "COC(=O)C1=C(C)N2[C@H](C(=O)O)CS[C@@]2(C)[C@H](C(=O)OC)[C@H]1c1cccc([N+](=O)[O-])c1"
  measuredOn: "RXF 393"
  reportedMeasurement: "> 100 µM (inactive)"
- compound: "O=C(NNC(=O)c1ccncc1)c1ccncc1"
  measuredOn: "RXF 393"
  reportedMeasurement: "> 100 µM (inactive)"
- compound: "COc1ccc(Nc2nc3ccccc3n3cccc23)cc1OC"
  measuredOn: "RXF 393"
  reportedMeasurement: "12.9 µM (inactive)"
- compound: "COC(=O)c1ccccc1CC1Cc2cc3c(cc2C1)CCC3"
  measuredOn: "RXF 393"
  reportedMeasurement: "20.9 µM (inactive)"
- compound: "CN(C)c1cccc(NC2=NCCO2)c1"
  measuredOn: "RXF 393"
  reportedMeasurement: "> 100 µM (inactive)"
- compound: "NCCCCNCCCNC(=O)c1nc(-c2csc(CCN)n2)sc1Cl"
  measuredOn: "RXF 393"
  reportedMeasurement: "> 100 µM (inactive)"
- compound: "C=C1C(=O)OC2/C=C(\\C=O)CC/C=C(\\C)C(O)C[C@@H]12 (stereo not given in full)"
  measuredOn: "RXF 393"
  reportedMeasurement: "2.84 µM (inactive)"
- compound: "CCC1CN2CCc3cc(OC)c(OC)cc3C2CC1CC1c2cc(OC)c(OC)cc2CCN1C(=O)C(Cc1c[nH]c2ccccc12)NC(=O)OC(C)(C)C (stereo not given)"
  measuredOn: "RXF 393"
  reportedMeasurement: "2.67 µM (inactive)"
- compound: "Cn1cnc([N+](=O)[O-])c1Sc1nc(N)nc2c1ncn2[C@H]1C[C@H](O)[C@@H](CO)O1"
  measuredOn: "RXF 393"
  reportedMeasurement: "8.32 µM (inactive)"
